Species: Homo sapiens
Test: Selectivity ratio of IC50 for human full-length recombinant HDAC1 expressed in baculovirus infected Sf9 insect cells to IC50 for human full-length recombinant HDAC6 expressed in baculovirus infected Sf9 insect cells
Would you please tag the item Met when its Ratio IC50 is 400 or above, and Not met when it is below?

smiles_str | assigned_category
O=C(NO)c1ccc(Cn2c(=O)n(CCc3ccccc3)c(=O)c3ccc(C4CC4)cc32)cc1 | Not met
O=C(NO)c1ccc(Cn2c(=O)n(CCc3cccc(C(F)(F)F)c3)c(=O)c3ccccc32)cc1 | Met
COc1ccc(CCn2c(=O)c3ccccc3n(Cc3ccc(C(=O)NO)cc3)c2=O)cc1 | Not met

[in] // inclusive: Ratio IC50 at least 400? input: `O=C(NO)c1ccc(Cn2c(=O)n(CCc3ccccc3)c(=O)c3ccccc32)cc1`
[out] Met

[in] // inclusive: Ratio IC50 at least 400? input: `COc1ccc2c(=O)n(CCc3ccccc3)c(=O)n(Cc3ccc(C(=O)NO)cc3)c2c1`
[out] Not met

[in] // inclusive: Ratio IC50 at least 400? input: `O=C(NO)c1ccc(Cn2c(=O)n(CCc3ccccc3)c(=O)c3ccc(O)cc32)cc1`
[out] Not met

[in] // inclusive: Ratio IC50 at least 400? input: `O=C(NO)c1ccc(Cn2c(=O)n(CCc3ccc(F)cc3)c(=O)c3ccccc32)cc1`
[out] Met

[in] // inclusive: Ratio IC50 at least 400? input: `Cc1ccc2c(=O)n(CCc3ccccc3)c(=O)n(Cc3ccc(C(=O)NO)cc3)c2c1`
[out] Not met

[in] // inclusive: Ratio IC50 at least 400? input: `O=C(NO)c1ccc(Cn2c(=O)n(CCc3ccccc3)c(=O)c3ccc(F)cc32)cc1`
[out] Met

Where do the numbers come from? From ChEMBL document CHEMBL4330076.
